target: L-lactate dehydrogenase (Plasmodium falciparum (isolate CDC / Honduras)) (UniProt Q27743); experiment: PfLDH activity inhibition – cell lysate, 3D7 strain, counter-screen for P. falciparum growth inhibition project (AID 2304);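 further: 0% = vehicle and 100% = reference inhibitor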; conditions: P. falciparum 3D7 crude extract, LDH APAD/NBT absorbance; at 2 µM; hits give high values
Sequence (Q27743 whole entry, looked up): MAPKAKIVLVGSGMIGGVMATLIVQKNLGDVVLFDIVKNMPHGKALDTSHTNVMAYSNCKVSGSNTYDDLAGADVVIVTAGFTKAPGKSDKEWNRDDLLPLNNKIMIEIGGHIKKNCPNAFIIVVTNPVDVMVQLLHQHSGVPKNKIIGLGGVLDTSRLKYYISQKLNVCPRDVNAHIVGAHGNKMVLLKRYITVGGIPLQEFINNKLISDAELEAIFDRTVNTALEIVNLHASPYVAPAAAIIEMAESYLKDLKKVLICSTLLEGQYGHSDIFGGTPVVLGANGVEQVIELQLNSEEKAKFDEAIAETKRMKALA
Field: inhibition. Provide a value for each of the compounds that follow.
Answers are plain numbers, in %.

Some solved entries appear below for comparison.
{"COMPOUND": "COc1cc2c(cc1S(=O)(=O)c1ccc(NC(=O)c3cccc(C(F)(F)F)c3)cc1)CCN(C)CC2", "TARGET OF ASSAY": "L-lactate dehydrogenase (Plasmodium falciparum (isolate CDC / Honduras)) (UniProt Q27743)", "MEASURED VALUE": 3}
{"COMPOUND": "COc1ccc(CN(C)CCOc2ccc(NC(=O)c3cccc4c(=O)c5cc(SC)ccc5[nH]c34)cc2)cc1OC", "TARGET OF ASSAY": "L-lactate dehydrogenase (Plasmodium falciparum (isolate CDC / Honduras)) (UniProt Q27743)", "MEASURED VALUE": 1}
{"COMPOUND": "COC(=O)C(NC(=O)c1ccc(-c2ccc(-c3nc4ccccc4[nH]3)s2)cc1)c1ccc(O)cc1 (stereo not drawn)", "TARGET OF ASSAY": "L-lactate dehydrogenase (Plasmodium falciparum (isolate CDC / Honduras)) (UniProt Q27743)", "MEASURED VALUE": 3}
{"COMPOUND": "CC(=O)c1cccc(NC(=O)NC2CCN(c3ccnc(Nc4ccc(F)cc4)n3)C2)c1 (stereo not drawn)", "TARGET OF ASSAY": "L-lactate dehydrogenase (Plasmodium falciparum (isolate CDC / Honduras)) (UniProt Q27743)", "MEASURED VALUE": -2}
{"COMPOUND": "CC(=O)NCCNc1cc(N2CCc3ncnc(Nc4ccc(OCc5c(F)cccc5F)c(Cl)c4)c3C2)ncn1", "TARGET OF ASSAY": "L-lactate dehydrogenase (Plasmodium falciparum (isolate CDC / Honduras)) (UniProt Q27743)", "MEASURED VALUE": 4}
{"COMPOUND": "CN(Cc1cccc(O)c1)C1CCCN(c2cc(NC(=O)c3ccc(F)cc3)ccn2)C1 (stereo not drawn)", "TARGET OF ASSAY": "L-lactate dehydrogenase (Plasmodium falciparum (isolate CDC / Honduras)) (UniProt Q27743)", "MEASURED VALUE": -2}
{"COMPOUND": "COc1cccc(CNC(=O)c2cc(CNCc3ccccc3)ccc2-c2cccc(CNCc3ccc(-c4ccccc4)cc3)c2)c1", "TARGET OF ASSAY": "L-lactate dehydrogenase (Plasmodium falciparum (isolate CDC / Honduras)) (UniProt Q27743)", "MEASURED VALUE": 8}
{"COMPOUND": "Cc1cccc2[nH]c(-c3ccc(-c4ccc(NC(=O)C(C)CN(C)C)cc4)s3)nc12 (stereo not drawn)", "TARGET OF ASSAY": "L-lactate dehydrogenase (Plasmodium falciparum (isolate CDC / Honduras)) (UniProt Q27743)", "MEASURED VALUE": 0}
{"COMPOUND": "Cc1ccc(CNC(=O)c2cc3c(=O)n4ccccc4nc3n(CCCN3CCOCC3)c2=N)cc1", "TARGET OF ASSAY": "L-lactate dehydrogenase (Plasmodium falciparum (isolate CDC / Honduras)) (UniProt Q27743)", "MEASURED VALUE": -3}
{"COMPOUND": "CN(C)C(C)(C)CN(Cc1ccc(-c2ccc(C(F)(F)F)cc2)cc1)C(=O)Cn1c(CCc2cccc(F)c2F)nc(=O)c2ccccc21", "TARGET OF ASSAY": "L-lactate dehydrogenase (Plasmodium falciparum (isolate CDC / Honduras)) (UniProt Q27743)", "MEASURED VALUE": -3}

Below is a list of compounds. For each, state its recorded inhibition.
1. Cc1cccc2[nH]c(-c3ccc(-c4cccc(NC(=O)Nc5ccc6c(c5)OCO6)c4)cc3)nc12
2. CC(CCc1ccccc1)NCC(O)c1cccc([N+](=O)[O-])c1 (stereo not drawn)
3. O=C(N[C@@H](Cc1ccccc1)C(=O)NCCN1CCCCC1)c1ccc(O)c(-c2ccc(Cl)c(Cl)c2)c1
4. COC(=O)c1cc(NC(=O)Nc2ccc(Cn3ncc(N4CCCNCC4)c(Cl)c3=O)cc2)cc(C(=O)OC)c1
5. CC1(C)Cc2c([nH]c3ccccc23)C(CCCCCCCCC2=NC(C)(C)Cc3c2[nH]c2ccccc32)=N1
6. O=C(Nc1cccc(-c2cccc(-c3nc4ccccc4[nH]3)c2)c1)c1cccnc1

# output
1: -8; 2: 1; 3: -3; 4: 3; 5: -1; 6: -3

Answer for every listed entry: what is its inhibition? The entries follow.
1. Cc1ccc2nc(N(CCCn3ccnc3)C(=O)C=Cc3cccs3)sc2c1
2. Brc1cc(Br)c2c(c1)C(NCCCNc1nc3ncccc3[nH]1)CCN2 (stereo not drawn)

# output
1: 0; 2: 1

* * *

assay: antimalarial activity against Dd2 strain (AID 2302);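 further: 0% = DMSO untreated growth and 100% = chloroquine plus artemisinin killed control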; details: P. falciparum Dd2 in RBCs, LDH growth readout, 72 h; at 2 µM; hits give high values
Decide using growth inhibition: a value greater than or equal to 50% is TRUE, a smaller one is FALSE.

Illustrative cases are given below, each with its answer.
{"COMPOUND": "Cc1ccc(C(C#N)c2ccc3c(C(F)(F)F)cc(C(F)(F)F)nc3n2)cc1 (stereo not given)", "ASSIGNED CATEGORY": "FALSE"}
{"COMPOUND": "O=C(Nc1cccc(OC2CCN(Cc3ccccc3)CC2)c1)Nc1cccc([N+](=O)[O-])c1", "ASSIGNED CATEGORY": "FALSE"}
{"COMPOUND": "CO/C(=C\\C=C\\c1cc2cc(Cl)ccc2[nH]1)C(=O)NCCCN1CCN(c2cc(Cl)ccc2OC)CC1", "ASSIGNED CATEGORY": "FALSE"}
{"COMPOUND": "CC(C)(C)c1ccc2nccc(Nc3cccc(O)c3)c2c1", "ASSIGNED CATEGORY": "TRUE"}
{"COMPOUND": "O=C(Nc1ccc(N2CCCCC2)c(Cl)c1)c1ncn[nH]1", "ASSIGNED CATEGORY": "TRUE"}

# input In plain terms: is recorded growth inhibition at least 50% for COc1cc2c(cc1N(C(C)C)S(=O)(=O)c1sc3ccc(Cl)cc3c1C)CCNCC2 ?
# output TRUE

# input In plain terms: is recorded growth inhibition at least 50% for Cc1cc(NC(=O)c2coc3cc(F)c(N4C[C@@H](C)N(C)[C@@H](C)C4)cc23)ccc1-n1ccnc1 ?
# output FALSE

* * *

biological target: L-lactate dehydrogenase (Plasmodium falciparum (isolate CDC / Honduras)); assay: PfLDH activity inhibition – cell lysate, 3D7 strain, counter-screen for P. falciparum growth inhibition project (AID 2304);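 further: 0% = vehicle and 100% = reference inhibitor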; settings: P. falciparum 3D7 crude extract, LDH APAD/NBT absorbance; at 2 µM; hits give high values
QUANTITY NAME: inhibition (%)
Numbers only, in %.

Check out these entries, answers already filled in.
{"MOLECULE": "C=CCc1cc(SC)ccc1Oc1ccc(N)cc1", "inhibition, %": 4}
{"MOLECULE": "COc1ccc(CNCc2ccc(-c3ccc(-c4nc5ccc(C(F)(F)F)cc5[nH]4)cc3)cc2)cc1", "inhibition, %": 7}
{"MOLECULE": "Cc1cccc2c(C(=O)NC3CCN(Cc4ccccc4)CC3)cc(-c3cccnc3)nc12", "inhibition, %": -2}
{"MOLECULE": "COc1cc2nc(-c3ccc(Br)cc3)cc(N)c2cc1OC", "inhibition, %": -3}
{"MOLECULE": "Cc1nc(Nc2cc(Cl)ccc2O)nc(Nc2cc(Cl)ccc2O)c1[N+](=O)[O-]", "inhibition, %": 3}
{"MOLECULE": "CCCOc1cc(NC(=O)Nc2ccnc3ccccc23)cc(OCCC)c1", "inhibition, %": -1}
{"MOLECULE": "O=S(=O)(NCCN1CCCC1)c1ccc(-c2ccc(CNCc3ccsc3)cc2)cc1F", "inhibition, %": 0}
{"MOLECULE": "Cc1cnc(-c2cccc(C(=O)NC3CCC(CCN4CCc5ccc(C#N)cc5CC4)CC3)c2)[nH]1 (stereo not given)", "inhibition, %": 1}
{"MOLECULE": "CN(C)c1ccc(C=C2SC(=N)N(c3nccs3)C2=O)cc1", "inhibition, %": 2}

From here, focus on the item given below.
# input Report inhibition for O=C(NCCN1CCCC1)c1ccc(-c2ccc(-c3nc4ccccc4[nH]3)s2)cc1
# output -2

* * *

assay: antimalarial activity against Dd2 strain (AID 2302);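 further: 0% = DMSO untreated growth and 100% = chloroquine plus artemisinin killed control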; settings: P. falciparum Dd2 in RBCs, LDH growth readout, 72 h; at 2 µM; hits give high values
I'd appreciate it if you could label each record using growth inhibition and these ranges: lower bin (below 20%), middle bin (20% to below 70%), upper bin (70% or more)

# example entries with known answers
{"MOLECULE": "CCOc1cc(NCCSCc2nc[nH]c2C)nc2ccccc12", "ASSIGNED CATEGORY": "lower bin"}
{"MOLECULE": "OCC1CCN(Cc2ccc(-c3cccc(-c4nc5ccc(C(F)(F)F)cc5[nH]4)c3)cc2)CC1", "ASSIGNED CATEGORY": "upper bin"}

# input Which band does Cc1cccc2[nH]c(-c3ccc(-c4cccc(NC(=O)Nc5ccc6c(c5)OCO6)c4)cc3)nc12 fall in?
# output middle bin

# input Pick a category. Item: O=C(/C=C/c1ccc(Cl)c(Cl)c1)NCCCCCCN1CCCN(C(=O)Nc2ccc(Cl)c(C(F)(F)F)c2)CC1
# output middle bin

# input Record Cc1cccc2[nH]c(-c3ccc(-c4ccc(CN5CCN(CCO)CC5)cc4)cc3)nc12 — which class?
# output upper bin
